system: SF-539 CNS; assay: NCI-60 one-dose screen, 48 h; details: 10 µM unless noted
Compounds without any hit were thinned out: in the full panel of roughly 83,000, 20% have a hit. Active and inactive are the calls of the source. The calls were made as follows: active = growth percent below 10; inactive = the rest.
Entry note: the call must match one of active, inactive

compound smiles: COc1ccc(-c2nocc2-c2cc(OC)c(OC)c(OC)c2)cc1
assayed system: SF-539 CNS
assigned label: active
--
compound smiles: CCCNC(=O)c1cn2ncnc(Nc3cc(C(=O)NC4CC4)ccc3C)c2c1C
assayed system: SF-539 CNS
assigned label: inactive

Asked: What did the test return for `COc1cc(Nc2ncc3c(n2)-c2ccc(Cl)cc2C(c2c(F)cccc2OC)=NC3)ccc1C(=O)O` ?
Given back: inactive

Asked: Next up: `COc1cc2nc(Nc3cccc(Cl)c3)nc(N)c2cc1OC`
Given back: inactive

Asked: Next up: `CNC(=O)c1cc(Oc2ccc(NC(=O)Nc3ccc(Cl)c(C(F)(F)F)c3)c(F)c2)ccn1`
Given back: active

Asked: Next up: `CC(C)c1cc(CNc2nc(Nc3cc(C4CC4)[nH]n3)cc(N3CCN(C)CC3)n2)on1`
Given back: active

Asked: Next up: `CC/C=C\C[C@H]1C/C=C2/C(=O)C=C[C@@H]2C/C=C\CCCC(=O)O1`
Given back: active

Asked: Next up: `C=CCN(/C=C1/C(=O)O[C@H](COC)[C@@]2(C)C1=C(O)C(=O)C1=C2[C@H](OC(C)=O)C[C@]2(C)C(=O)CC[C@@H]12)CC=C`
Given back: active

Asked: Next up: `c1ccc2c(c1)CCN(NCCN1CCCC1)C2`
Given back: inactive

Asked: Next up: `CN1CCN(c2ccc(OC(F)(F)F)c(Nc3ncc4c(n3)-c3c(c(C(N)=O)nn3CCO)CC4)c2)CC1`
Given back: active

Asked: Next up: `O=C(NO)c1ccc(Cn2c(=O)n(CCc3ccccc3)c(=O)c3ccccc32)cc1`
Given back: inactive

Asked: Next up: `CC(C)[C@@H]1CC[C@]2(CO2)[C@@H]2C(=O)OCC(C(=O)O)=C[C@H]21`
Given back: active

Asked: Next up: `N#CC(C#N)=NO`
Given back: inactive

Asked: Next up: `Cc1cc(Nc2ncnc3ccc(NC4=NC(C)(C)CO4)cc23)ccc1Oc1ccn2ncnc2c1`
Given back: inactive

Asked: Next up: `COc1cc2ncnc3c2cc1OCCCCCN(C)Cc1ccc(Br)cc1N3`
Given back: inactive
